Here, each record is paired with measured FR50 data.
# System: Spodoptera littoralis
# assay-text: Antifeedant activity against newly ecdysed fifth-instar larval stage of Spodoptera littoralis in compound-pretreated lettuce leaf disks assessed as consumed area of leaf disks at 0.1 ug/cm'2 measured at 30 min intervals for 4-5 hr post-drug exposure by choice test
# Type: functional
Hey, just send me the number, nothing else.

Worked cases, FR50 given:
{"columns": ["smiles-string", "data-value"],
 "data": [
  ["CC(=O)O[C@@H]1[C@@H]2[C@@H](OC(C)=O)[C@@]3(OC2(C)C)[C@@](OC(C)=O)([C@@H](OC(C)=O)CC[C@]3(C)O)[C@@H]1OC(=O)c1ccccc1", 0.64],
  ["CC(=O)O[C@H]1CC[C@](C)(O)[C@]23OC(C)(C)[C@H](C[C@H](OC(=O)c4ccccc4)[C@]12OC(C)=O)[C@H]3OC(C)=O", 0.4]
]}

Ask: // returns reported FR50 for input CC(=O)O[C@H]1C[C@](C)(O)[C@]23OC(C)(C)[C@H]([C@@H](C(C)=O)[C@@H](OC(=O)c4ccccc4)[C@]2(OC(C)=O)[C@H]1OC(=O)c1ccccc1)[C@H]3O
Result: 1.02

Hello, the source for this data is ChEMBL document CHEMBL3046582, in case you need it.
